Molecular target: hCA IX (Homo sapiens, UniProt Q16790)
Construct: gene CA9
Assay: biochemical
Settings: read-out: Human Isoforms / hCA IX
Measurement label: pKi
Note: pKi values are expressed as the negative base-10 logarithm of concentration in M.

[[record]]
chemical_structure = "CCS(=O)(=O)Nc1ccc(N=Nc2ccccc2)cc1"
target_entity = "hCA IX (Homo sapiens, UniProt Q16790)"
numeric_result = 5.15

[[record]]
chemical_structure = "Cc1ccc(S(=O)(=O)Nc2ccc(N=Nc3ccccc3)cc2)cc1[N+](=O)[O-]"
target_entity = "hCA IX (Homo sapiens, UniProt Q16790)"
numeric_result = 6.10

[[record]]
chemical_structure = "CS(=O)(=O)Nc1ccc(N=Nc2ccccc2)cc1"
target_entity = "hCA IX (Homo sapiens, UniProt Q16790)"
numeric_result = 6.22

[[record]]
chemical_structure = "COc1ccc(S(=O)(=O)Nc2ccc(N=Nc3ccccc3)cc2)c(OC)c1"
target_entity = "hCA IX (Homo sapiens, UniProt Q16790)"
numeric_result = 5.24

[[record]]
chemical_structure = "N#Cc1ccc(S(=O)(=O)Nc2ccc(N=Nc3ccccc3)cc2)cc1"
target_entity = "hCA IX (Homo sapiens, UniProt Q16790)"
numeric_result = 6.21


For the compound shown here, "O=S(=O)(Nc1ccc(N=Nc2ccccc2)cc1)c1ccccc1" , give the reported pKi.
5.40

Name the reported pKi value associated with the compound "N#Cc1ccc(S(=O)(=O)Nc2ccc(N=Nc3ccccc3)cc2)c(Cl)c1"
5.04

So what's the measured pKi for this one? "O=[N+]([O-])c1cccc(S(=O)(=O)Nc2ccc(N=Nc3ccccc3)cc2)c1"
6.22

Which pKi value belongs to "O=S(=O)(Cc1ccccc1)Nc1ccc(N=Nc2ccccc2)cc1" ?
5.35

Name the reported pKi value associated with the compound "O=S(=O)(Nc1ccc(N=Nc2ccccc2)cc1)c1ccc(Cl)s1"
5.39

###

List of Ki values.
Molecular target: HpβCA (Helicobacter pylori, UniProt Q9ZN54)
Construct: gene cynT; recombinant, obtained in-house
Sequence (Q9ZN54 whole entry): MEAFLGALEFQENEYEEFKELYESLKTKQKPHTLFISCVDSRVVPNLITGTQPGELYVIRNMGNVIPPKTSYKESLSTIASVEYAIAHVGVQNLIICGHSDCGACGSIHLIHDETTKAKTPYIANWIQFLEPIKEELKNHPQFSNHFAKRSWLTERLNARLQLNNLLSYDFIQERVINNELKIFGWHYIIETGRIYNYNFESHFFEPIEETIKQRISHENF
Assay: stopped-flow CO2 hydration
Type: biochemical
Conditions: read-out: KI (nM) * / Bacterial Isoforms / Hp βCA
Give just the numeric value; nM need not be written.

[[record]]
chemical_structure = "Cc1cc(/N=N/c2ccc(S(N)(=O)=O)cc2)c(C)cc1O"
unit_abbreviation = "nM"
numeric_result = 70.6

[[record]]
chemical_structure = "COc1ccc(O)c(/N=N/c2ccc(S(N)(=O)=O)cc2)c1"
unit_abbreviation = "nM"
numeric_result = 74.1

[[record]]
chemical_structure = "Cc1ccc(O)c(/N=N/c2ccc(S(N)(=O)=O)cc2)c1"
unit_abbreviation = "nM"
numeric_result = 127


Report Ki for "COc1cc(/N=N/c2ccc(S(N)(=O)=O)cc2)ccc1O" please.
49.7

###

# Ki per record follows
Target: PsCA3 (Pseudomonas aeruginosa)
Construct: gene PA4676; recombinant, obtained in-house
Sequence (Q9HVB9 1-215): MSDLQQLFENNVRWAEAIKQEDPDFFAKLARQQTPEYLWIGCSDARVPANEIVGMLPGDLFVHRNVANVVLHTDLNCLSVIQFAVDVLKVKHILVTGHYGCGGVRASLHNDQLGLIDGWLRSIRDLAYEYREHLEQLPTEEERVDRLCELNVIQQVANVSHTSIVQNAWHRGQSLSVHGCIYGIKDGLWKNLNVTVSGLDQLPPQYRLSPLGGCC
Experiment: biochemical
Conditions: read-out: Bacterial Isoforms / Ps CA3
Reply numerically in µM, unit not repeated.

Consider the worked cases shown below.
[[record]]
compound = "O=S(=O)(Nc1ccc(N=Nc2ccccc2)cc1)c1ccccc1 [5a]"
unit_abbreviation = "µM"
numeric_result = 9.28

[[record]]
compound = "CCS(=O)(=O)Nc1ccc(N=Nc2ccccc2)cc1 [5j]"
unit_abbreviation = "µM"
numeric_result = 69.8

[[record]]
compound = "N#Cc1ccc(S(=O)(=O)Nc2ccc(N=Nc3ccccc3)cc2)cc1 [5b]"
unit_abbreviation = "µM"
numeric_result = 5.76

[[record]]
compound = "CS(=O)(=O)Nc1ccc(N=Nc2ccccc2)cc1 [5i]"
unit_abbreviation = "µM"
numeric_result = 9.28


Note: attention shifts to another entry.
Lab request: please report Ki under test system PsCA3 (Pseudomonas aeruginosa) for O=[N+]([O-])c1cccc(S(=O)(=O)Nc2ccc(N=Nc3ccccc3)cc2)c1 [5d]
90.2

###

Biological target: hCA II (Homo sapiens, UniProt P00918)
Construct: gene CA2; purchased from Merck
Test: biochemical
Conditions: read-out: Human Isoforms / hCA II
pKi: −log10 of the molar value.
Measurement label: pKi

Recorded results for 3 compounds are shown here.
[[record]]
chemical_structure = "COc1ccc(S(=O)(=O)Nc2ccc(N=Nc3ccccc3)cc2)c(OC)c1"
target_entity = "hCA II (Homo sapiens, UniProt P00918)"
result = "< 4.00"

[[record]]
chemical_structure = "O=S(=O)(Nc1ccc(N=Nc2ccccc2)cc1)c1ccc(Cl)s1"
target_entity = "hCA II (Homo sapiens, UniProt P00918)"
result = "< 4.00"

[[record]]
chemical_structure = "O=S(=O)(Nc1ccc(N=Nc2ccccc2)cc1)c1ccccc1"
target_entity = "hCA II (Homo sapiens, UniProt P00918)"
result = "< 4.00"


Turning now to a further record.
// query pKi value for entry "CCS(=O)(=O)Nc1ccc(N=Nc2ccccc2)cc1"
< 4.00

###

Listed here are compounds together with their documented Ki.
Biological target: EcoβCA (Escherichia coli, UniProt P61517)
Construct: gene can; recombinant, obtained in-house
Sequence (P61517 whole entry): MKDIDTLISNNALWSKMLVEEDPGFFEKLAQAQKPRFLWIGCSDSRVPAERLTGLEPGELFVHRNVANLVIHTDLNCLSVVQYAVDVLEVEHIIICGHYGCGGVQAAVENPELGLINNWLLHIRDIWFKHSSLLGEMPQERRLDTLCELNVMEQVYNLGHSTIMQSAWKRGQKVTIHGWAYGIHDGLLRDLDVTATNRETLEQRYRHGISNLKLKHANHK
Experiment: stopped-flow CO2 hydration
Assay type: biochemical
Conditions: read-out: KI (nM) * / Bacterial Isoforms / Eco βCA
Write the value in nM as a bare number.

Below: 6 compounds and their reported Ki.
[[record]]
chemical_structure = "Cc1ccc(O)c(/N=N/c2ccc(S(N)(=O)=O)cc2)c1"
measurement_label = "Ki"
numeric_result = 360

[[record]]
chemical_structure = "NS(=O)(=O)c1ccc(/N=N/c2ccc(O)cc2C(F)(F)F)cc1"
measurement_label = "Ki"
numeric_result = 95.3

[[record]]
chemical_structure = "Cc1cc(O)cc(C)c1/N=N/c1ccc(S(N)(=O)=O)cc1"
measurement_label = "Ki"
numeric_result = 550

[[record]]
chemical_structure = "Cc1cc(O)ccc1/N=N/c1ccc(S(N)(=O)=O)cc1"
measurement_label = "Ki"
numeric_result = 3040

[[record]]
chemical_structure = "COc1ccc(O)c(/N=N/c2ccc(S(N)(=O)=O)cc2)c1"
measurement_label = "Ki"
numeric_result = 400

[[record]]
chemical_structure = "NS(=O)(=O)c1ccc(/N=N/c2ccc(O)c(C(F)(F)F)c2)cc1"
measurement_label = "Ki"
numeric_result = 738


Name the reported Ki value associated with the compound "COc1cc(O)ccc1/N=N/c1ccc(S(N)(=O)=O)cc1"
96.3

Can you share its Ki? I mean this compound: "Cc1cc(/N=N/c2ccc(S(N)(=O)=O)cc2)ccc1O"
2110

Please report the recorded Ki for "Cc1cc(/N=N/c2ccc(S(N)(=O)=O)cc2)c(C)cc1O" .
867

Fill in: Ki of "COc1cc(/N=N/c2ccc(S(N)(=O)=O)cc2)ccc1O" is ___
95.8

###

Target: PgiγCA
Construct: gene PgiCA; recombinant, obtained in-house
Test: stopped-flow CO2 hydration
Assay type: biochemical, Porphyromonas gingivalis
Conditions: pH […] HEPES, […] Na2SO4, […] min preincubation, r.t.; read-out: KI (nM) * / Bacterial Isoforms / Pgi γCA
Measurement label: log10 Ki (log10 of the value in nM)
Scale: log10; quantity: Ki; unit before log: nM

These solved cases illustrate the format of a correct answer.
[[record]]
chemical_structure = "Cc1ccc(O)c(/N=N/c2ccc(S(N)(=O)=O)cc2)c1"
numeric_result = 2.89

[[record]]
chemical_structure = "Cc1cc(/N=N/c2ccc(S(N)(=O)=O)cc2)ccc1O"
numeric_result = 3.80


What does the data say about its log10 Ki? Entry: "NS(=O)(=O)c1ccc(/N=N/c2ccc(O)cc2C(F)(F)F)cc1"
2.54

Any idea what log10 Ki was measured for "NS(=O)(=O)c1ccc(/N=N/c2ccc(O)c(C(F)(F)F)c2)cc1" ?
1.98

# lookup: log10 Ki of "COc1cc(/N=N/c2ccc(S(N)(=O)=O)cc2)ccc1O"
2.92

Could you tell me which log10 Ki is on file for "Cc1cc(/N=N/c2ccc(S(N)(=O)=O)cc2)c(C)cc1O" ?
2.67

###

Target: hCA IX (Homo sapiens, UniProt Q16790)
Construct: gene CA9
Assay: stopped-flow CO2 hydration
Assay type: biochemical
Conditions: read-out: KI (nM) * / Human Isoforms / hCA IX
Excerpt: stopped-flow CO2 hydration on hCA IX
Measurement label: Ki (nM)
Express it in nM; write the number only.

Value lookup for Ki; key = COc1cc(/N=N/c2ccc(S(N)(=O)=O)cc2)ccc1O [4b]
831

If you can, please state the reported Ki value of NS(=O)(=O)c1ccc(/N=N/c2ccc(O)cc2C(F)(F)F)cc1 [4e] .
191

###

Test system: H. pylori ATCC 43504
Construct: ATCC 43504
Assay: microbe, parasite or virus in culture
Set-up: species or system Helicobacter pylori ATCC 43504; MIC by broth microdilution, alamarBlue and CFU count; MBC by CFU count
Settings: Helicobacter pylori, ATCC43504
Procedure: H. pylori ATCC 43504 was cultured on a Columbia Agar base (Becton Dickinson and Company, Franklin Lakes, NJ, USA) supplemented with 10% horse serum (Merck, St. Louis, MO, USA) and 0.25% yeast extract (Oxoid Ltd., Hampshire, UK), incubated at 37 °C for 72 h in a microaerophilic atmosphere (CampyGen, Thermo Fisher Scientific, Milan, Italy). […] MICs were determined by three different assays: the broth micro-dilution method, the alamarBlue assay, and the CFU count. […]
Measurement label: MIC (µg/mL)
Give the value in µg/mL but do not write µg/mL after it.

Examples from the recorded data:
[[record]]
chemical_structure = "COc1ccc(O)c(/N=N/c2ccc(S(N)(=O)=O)cc2)c1"
measurement_label = "MIC"
numeric_result = 8

[[record]]
chemical_structure = "Cc1cc(/N=N/c2ccc(S(N)(=O)=O)cc2)c(C)cc1O"
measurement_label = "MIC"
numeric_result = 32

[[record]]
chemical_structure = "COc1cc(O)ccc1/N=N/c1ccc(S(N)(=O)=O)cc1"
measurement_label = "MIC"
numeric_result = 8

[[record]]
chemical_structure = "O=S(=O)(Nc1ccc(N=Nc2ccccc2)cc1)c1ccc(Cl)s1"
measurement_label = "MIC"
numeric_result = 16


MIC lookup needed for "COc1ccc(S(=O)(=O)Nc2ccc(N=Nc3ccccc3)cc2)c(OC)c1" , thanks.
4

These data points were gathered from paper PMC11357054.
